Hello, the source for this data is patent US20080220450A1, in case you need it.

- Target or system: DRB1*0301 (DR3w17)
- Experiment summary: binding to purified HLA
pIC50: −log10 of the molar value.
Recorded metric: pIC50

A = GTVAALNNSIGVLGV [BPN' Y217L .70]
B = GSISYPARYANAMAV [B. lentus 157]
Looking at A and B , which one comes out lower in pIC50 terms? State the label of the item chosen.
B
